Numbers sourced from patent US12371454B2.

measured target: Kras and SOS1 (biotin-tagged human Kras loaded with GDP, His-tagged human SOS1) (Homo sapiens, UniProt P01116, G12D)
Construct: made in house; host or cells: E. coli (stated for Kras only)
Sequence (P01116 1-188 isoform P01116-2 G12D): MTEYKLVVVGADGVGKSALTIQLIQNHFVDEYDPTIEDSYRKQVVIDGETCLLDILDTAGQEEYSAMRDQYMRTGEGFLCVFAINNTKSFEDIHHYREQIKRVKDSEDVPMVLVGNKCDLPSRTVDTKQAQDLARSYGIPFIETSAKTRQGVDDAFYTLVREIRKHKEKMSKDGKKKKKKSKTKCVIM
test: Protein-protein interaction inhibition between Kras and SOS1 (KrasGl2D-SOS PPI) using AlphaScreen
Format: binding
stated conditions: AlphaScreen; biotin-tagged human Kras loaded with GDP, His-tagged human SOS1; read-out: KRAS G12D-SOS PPI IC50
Positions of bridges follow the written chain, without caps; N, C: chain ends. Non-standard residues stand in square brackets, D forms with d. Residues, ends and D or L forms follow the SMILES beside them. *: point of attachment. hPhe(3-Cl-4-CF3) = N[C@@H](CCc1ccc(C(F)(F)F)c(Cl)c1)C(=O)O; 3Oxa8azabicyclo(3.2.1)octane = C1CC2COCC1N2*; NMeAbu(4,4,4-F3) = CN[C@@H](CC(F)(F)F)C(=O)O; NMePhe(4-Me) = CN[C@@H](Cc1ccc(C)cc1)C(=O)O; Pro(4,4-F2) = O=C(O)[C@@H]1CC(F)(F)CN1; NMeCha = CN[C@@H](CC1CCCCC1)C(=O)O; NMeChg = CN[C@H](C(=O)O)C1CCCCC1; Gly(cBu) = N[C@H](C(=O)O)C1CCC1; NMeD = CN[C@@H](CC(=O)O)C(=O)O; NMeL = CN[C@@H](CC(C)C)C(=O)O; NMeV = CN[C@H](C(=O)O)C(C)C; NMeS = CN[C@@H](CO)C(=O)O; NMeA = CN[C@@H](C)C(=O)O; Piperidide = C1CCN(*)CC1; Pyrrolidide = C1CCN(*)C1; Ac5c = NC1(C(=O)O)CCCC1; Aze = O=C(O)[C@@H]1CCN1; Sar = CNCC(=O)O; Propyl = CCC*

- molecule: "CC[C@H](C)[C@@H]1NC(=O)[C@H](CC(F)(F)F)N(C)C(=O)C[C@@H](C(=O)N2CCCC2)N(C)C(=O)[C@H](C2CCCCC2)N(C)C(=O)C2(CCCC2)NC(=O)[C@@H]2CC(F)(F)CN2C(=O)[C@H](CCc2ccc(C(F)(F)F)c(Cl)c2)NC(=O)CN(C)C(=O)[C@H](Cc2ccc(C)cc2)N(C)C(=O)CN(C)C(=O)CN(C)C1=O [Compound 1245] ([NMeAbu(4,4,4-F3)]I[Sar][Sar][NMePhe(4-Me)][Sar][hPhe(3-Cl-4-CF3)][Pro(4,4-F2)][Ac5c][NMeChg][NMeD]-Pyrrolidide; lactam N-11)"
  IC50 [nM]: 0.54
- molecule: "CCCOC[C@H]1C(=O)N(C)[C@H](C(=O)N2CCCCC2)CC(=O)N(C)[C@@H](CC(C)C)C(=O)N[C@@H]([C@@H](C)CC)C(=O)N(C)[C@@H](C)C(=O)N2CC[C@H]2C(=O)N(C)[C@@H](CC2CCCCC2)C(=O)N(C)CC(=O)N[C@@H](CCc2ccc(C(F)(F)F)c(Cl)c2)C(=O)N2CCC[C@H]2C(=O)NC2(CCCC2)C(=O)N1C [Compound 1855] ([NMeL]I[NMeA][Aze][NMeCha][Sar][hPhe(3-Cl-4-CF3)]P[Ac5c][NMeS](Propyl)[NMeD]-Piperidide; lactam N-11)"
  IC50 [nM]: 340
- molecule: "CC[C@H](C)[C@@H]1NC(=O)[C@H](CC(C)C)N(C)C(=O)C[C@@H](C(=O)N2CCCCC2)N(C)C(=O)[C@H](C(C)C)N(C)C(=O)C2(CCCC2)NC(=O)[C@H](C)NC(=O)[C@H](CCc2ccc(C(F)(F)F)c(Cl)c2)NC(=O)CN(C)C(=O)[C@H](CC2CCCCC2)N(C)C(=O)[C@@H]2CCN2C(=O)[C@H](C)N(C)C1=O [Compound 1316] ([NMeL]I[NMeA][Aze][NMeCha][Sar][hPhe(3-Cl-4-CF3)]A[Ac5c][NMeV][NMeD]-Piperidide; lactam N-11)"
  IC50 [nM]: 3.2
- molecule: "CC(C)C[C@H]1C(=O)N[C@@H](C2CCC2)C(=O)N(C)CC(=O)N(C)CC(=O)N(C)[C@@H](CC2CCCCC2)C(=O)N(C)CC(=O)N[C@@H](CCc2ccc(C(F)(F)F)c(Cl)c2)C(=O)N2CCC[C@H]2C(=O)NC2(CCCC2)C(=O)N(C)[C@@H](C2CCCCC2)C(=O)N(C)[C@H](C(=O)N2C3CCC2COC3)CC(=O)N1C [Compound 1879] ([NMeL][Gly(cBu)][Sar][Sar][NMeCha][Sar][hPhe(3-Cl-4-CF3)]P[Ac5c][NMeChg][NMeD]-{3Oxa8azabicyclo(3.2.1)octane}; lactam N-11)"
  IC50 [nM]: 0.66

---

Measured IC50, listed per entry for reference.
measured target: Kras and SOS1 (biotin-tagged human Kras loaded with GDP, His-tagged human SOS1) (Homo sapiens, UniProt P01116, G12D)
Construct: made in house; host or cells: E. coli (stated for Kras only)
test: Protein-protein interaction inhibition between Kras and SOS1 (KrasGl2D-SOS PPI) using AlphaScreen
Type: binding
stated conditions: AlphaScreen; biotin-tagged human Kras loaded with GDP, His-tagged human SOS1; read-out: KRAS G12D-SOS PPI IC50
Description: Protein-Protein Interaction Inhibition Between Kras and SOS1 (KrasGl2D-SOS PPI) Using AlphaScreen Protein-protein interaction inhibition (PPI) between Kras and SOS1 was measured by energy transfer from nickel-conjugated donor beads to streptavidin-conjugated acceptor beads using biotin-tagged human Kras expressed in E. coli and loaded with GDP after purification and His-tagged human SOS1 enzyme. […]
Starred links: 1 amine or outer side, 2 acyl side, 3 side chain; linkers in the order of their positions; H or OH if unused. Non-standard residues stand in square brackets, D forms with d. Residues, ends and D or L forms follow the SMILES beside them. hPhe(3-Cl-4-CF3) = N[C@@H](CCc1ccc(C(F)(F)F)c(Cl)c1)C(=O)O; hPhe(4-CF3) = N[C@@H](CCc1ccc(C(F)(F)F)cc1)C(=O)O; NMePhe(4-Cl) = CN[C@@H](Cc1ccc(Cl)cc1)C(=O)O; NMePhe(4-Me) = CN[C@@H](Cc1ccc(C)cc1)C(=O)O; NMedβ3hAla = C[C@H](CC(=O)[*:2])N(C)[*:1]; NMeGly(cPent) = CN[C@H](C(=O)O)C1CCCC1; Pro(4,4-F2) = O=C(O)[C@@H]1CC(F)(F)CN1; NMeI = CC[C@H](C)[C@H](NC)C(=O)O; NMeL = CN[C@@H](CC(C)C)C(=O)O; d(β3hA) = C[C@@H](N)CC(=O)O; NMeA = CN[C@@H](C)C(=O)O; Ac5c = NC1(C(=O)O)CCCC1; Ac4c = NC1(C(=O)O)CCC1; Aib = CC(C)(N)C(=O)O; Sar = CNCC(=O)O

- compound: "CC[C@H](C)[C@@H]1NC(=O)[C@H](CC(C)C)N(C)C(=O)C[C@@H](C)NC(=O)[C@H]([C@@H](C)CC)N(C)C(=O)C2(CCCC2)NC(=O)[C@@H]2CCCN2C(=O)[C@H](CCc2ccc(C(F)(F)F)c(Cl)c2)NC(=O)CN(C)C(=O)[C@H](Cc2ccc(C)cc2)N(C)C(=O)CN(C)C(=O)CN(C)C1=O [Compound 1774] (cyclo([Ac5c][NMeI][d(β3hA)][NMeL]I[Sar][Sar][NMePhe(4-Me)][Sar][hPhe(3-Cl-4-CF3)]P))"
  IC50 / nM: 0.84
- compound: "CC[C@H](C)[C@@H]1NC(=O)[C@H](CC(C)C)N(C)C(=O)C[C@@H](C)N(C)C(=O)[C@H](C2CCCC2)N(C)C(=O)C2(CCC2)NC(=O)[C@@H]2CC(F)(F)CN2C(=O)[C@H](CCc2ccc(C(F)(F)F)c(Cl)c2)NC(=O)CN(C)C(=O)[C@H](Cc2ccc(C)cc2)N(C)C(=O)CN(C)C(=O)CN(C)C1=O [Compound 359] (cyclo([Ac4c][NMeGly(cPent)][NMedβ3hAla][NMeL]I[Sar][Sar][NMePhe(4-Me)][Sar][hPhe(3-Cl-4-CF3)][Pro(4,4-F2)]))"
  IC50 / nM: 3.2
- compound: "CC[C@H](C)[C@@H]1NC(=O)[C@H](C)N(C)C(=O)C[C@@H](C)NC(=O)[C@H](CC(C)C)N(C)C(=O)C(C)(C)NC(=O)[C@@H]2CCCN2C(=O)[C@H](CCc2ccc(C(F)(F)F)cc2)NC(=O)CN(C)C(=O)[C@H](Cc2ccc(Cl)cc2)N(C)C(=O)CN(C)C(=O)CN(C)C1=O [Compound 664] (cyclo([Aib][NMeL][d(β3hA)][NMeA]I[Sar][Sar][NMePhe(4-Cl)][Sar][hPhe(4-CF3)]P))"
  IC50 / nM: 25

---

measured target: Kras and SOS1 (biotin-tagged human Kras loaded with GDP, His-tagged human SOS1) (Homo sapiens, UniProt P01116, G12D)
Construct: made in house; host or cells: E. coli (stated for Kras only)
test: Protein-protein interaction inhibition between Kras and SOS1 (KrasGl2D-SOS PPI) using AlphaScreen
Type: binding
stated conditions: AlphaScreen; biotin-tagged human Kras loaded with GDP, His-tagged human SOS1; read-out: KRAS G12D-SOS PPI IC50
pIC50: −log10 of the molar value. Positions of bridges follow the written chain, without caps; N, C: chain ends. Non-standard residues stand in square brackets, D forms with d. Residues, ends and D or L forms follow the SMILES beside them. *: point of attachment. hPhe(3-Cl-4-CF3) = N[C@@H](CCc1ccc(C(F)(F)F)c(Cl)c1)C(=O)O; NMeAbu(4,4,4-F3) = CN[C@@H](CC(F)(F)F)C(=O)O; NMeCha = CN[C@@H](CC1CCCCC1)C(=O)O; NMeAhp(2) = CCCCC[C@H](NC)C(=O)O; NMeChg = CN[C@H](C(=O)O)C1CCCCC1; NMeD = CN[C@@H](CC(=O)O)C(=O)O; Piperidide = C1CCN(*)CC1; Ac5c = NC1(C(=O)O)CCCC1; Sar = CNCC(=O)O
molecules and their reported pIC50

- molecule: "CC[C@H](C)[C@@H]1NC(=O)[C@H](CC(F)(F)F)N(C)C(=O)C[C@@H](C(=O)N2CCCCC2)N(C)C(=O)[C@H](C2CCCCC2)N(C)C(=O)C2(CCCC2)NC(=O)[C@@H]2CCCN2C(=O)[C@H](CCc2ccc(C(F)(F)F)c(Cl)c2)NC(=O)CN(C)C(=O)[C@H](CC2CCCCC2)N(C)C(=O)CN(C)C(=O)CN(C)C1=O [Compound 1701] ([NMeAbu(4,4,4-F3)]I[Sar][Sar][NMeCha][Sar][hPhe(3-Cl-4-CF3)]P[Ac5c][NMeChg][NMeD]-Piperidide; lactam N-11)"
  pIC50: 9.12
- molecule: "CCCCC[C@H]1C(=O)N[C@@H]([C@@H](C)CC)C(=O)N(C)CC(=O)N(C)CC(=O)N(C)[C@@H](CC2CCCCC2)C(=O)N(C)CC(=O)N[C@@H](CCc2ccc(C(F)(F)F)c(Cl)c2)C(=O)N2CCC[C@H]2C(=O)NC2(CCCC2)C(=O)N(C)[C@@H](C2CCCCC2)C(=O)N(C)[C@H](C(=O)N2CCCCC2)CC(=O)N1C [Compound 1735] ([NMeAhp(2)]I[Sar][Sar][NMeCha][Sar][hPhe(3-Cl-4-CF3)]P[Ac5c][NMeChg][NMeD]-Piperidide; lactam N-11)"
  pIC50: 8.96
